What koff was measured for each of the following?
Biological target: T1, GPIIb/IIIa (SEQ ID NOs: 23 and 24) (human, UniProt P08514 32-994; P05106 27-716)
T1 construct: also called GPIIb/IIIa complex
T1 sequence (P08514 32-994 limits assumed, chain 1 of 2): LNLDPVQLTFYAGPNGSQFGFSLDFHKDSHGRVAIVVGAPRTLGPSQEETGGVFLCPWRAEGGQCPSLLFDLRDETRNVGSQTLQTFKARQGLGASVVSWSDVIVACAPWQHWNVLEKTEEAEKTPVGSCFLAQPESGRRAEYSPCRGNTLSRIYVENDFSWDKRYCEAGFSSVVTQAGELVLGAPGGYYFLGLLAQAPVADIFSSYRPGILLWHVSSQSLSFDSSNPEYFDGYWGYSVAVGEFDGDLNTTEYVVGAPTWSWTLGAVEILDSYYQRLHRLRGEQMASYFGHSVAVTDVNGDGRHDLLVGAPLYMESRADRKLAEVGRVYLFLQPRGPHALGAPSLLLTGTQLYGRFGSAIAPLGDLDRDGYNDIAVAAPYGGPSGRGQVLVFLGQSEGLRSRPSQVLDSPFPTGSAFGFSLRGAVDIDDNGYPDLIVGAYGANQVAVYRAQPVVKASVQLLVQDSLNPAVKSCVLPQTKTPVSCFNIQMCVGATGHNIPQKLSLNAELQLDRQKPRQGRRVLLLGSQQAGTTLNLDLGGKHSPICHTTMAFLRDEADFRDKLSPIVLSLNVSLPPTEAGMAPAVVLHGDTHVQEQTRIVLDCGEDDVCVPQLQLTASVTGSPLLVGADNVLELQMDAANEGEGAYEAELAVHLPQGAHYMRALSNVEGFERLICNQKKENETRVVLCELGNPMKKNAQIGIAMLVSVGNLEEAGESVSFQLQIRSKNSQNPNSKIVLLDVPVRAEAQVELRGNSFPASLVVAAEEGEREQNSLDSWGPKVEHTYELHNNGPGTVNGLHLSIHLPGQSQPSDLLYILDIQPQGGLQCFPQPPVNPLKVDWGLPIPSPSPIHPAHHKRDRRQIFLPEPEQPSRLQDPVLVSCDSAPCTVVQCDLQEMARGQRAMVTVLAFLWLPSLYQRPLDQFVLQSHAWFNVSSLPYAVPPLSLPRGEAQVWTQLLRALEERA
T1 sequence (P05106 27-716 limits assumed, chain 2 of 2): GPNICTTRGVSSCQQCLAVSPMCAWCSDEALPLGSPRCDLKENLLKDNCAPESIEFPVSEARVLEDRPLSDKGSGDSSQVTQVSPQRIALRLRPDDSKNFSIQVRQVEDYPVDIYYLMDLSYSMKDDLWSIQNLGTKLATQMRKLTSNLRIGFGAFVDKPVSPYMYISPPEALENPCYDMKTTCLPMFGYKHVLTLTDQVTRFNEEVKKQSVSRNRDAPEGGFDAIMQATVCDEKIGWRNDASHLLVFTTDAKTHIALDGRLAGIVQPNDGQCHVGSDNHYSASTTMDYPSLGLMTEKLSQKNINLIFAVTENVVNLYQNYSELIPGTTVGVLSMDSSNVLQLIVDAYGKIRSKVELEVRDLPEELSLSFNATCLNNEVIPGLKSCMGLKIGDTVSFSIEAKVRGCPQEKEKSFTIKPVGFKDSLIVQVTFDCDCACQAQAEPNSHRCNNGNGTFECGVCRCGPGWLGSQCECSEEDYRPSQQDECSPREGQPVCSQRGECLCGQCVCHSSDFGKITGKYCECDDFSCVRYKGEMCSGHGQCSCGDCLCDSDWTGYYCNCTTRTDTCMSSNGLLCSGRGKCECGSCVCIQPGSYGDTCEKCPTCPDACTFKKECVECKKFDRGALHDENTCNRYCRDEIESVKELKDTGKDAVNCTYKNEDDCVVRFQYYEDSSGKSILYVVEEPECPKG
Assay: Bio-Layer Interferometry (OctetRed), monovalent format, yeast-purified Fab; apparent dissociation rate Kdis
The reply should contain only the number, in s⁻¹.

Please give the measured koff for this binder: affinity matured h34D10 Fab VH117/VL0 (Fab, V domains shown, Yeast-purified Fab) VH: EAQLVESGGGLVKPGGSLRLSCAASGFTFSAYAMSWVRQAPGKGLVWVASISSGGTTYYPDSVKRQFTISRDNAKNTLYLQMNSLRAEDTAVYYCTRGGDYGYALDYWGQGTLVTVSS VL: EIVMTQSPATLSVSPGERATLSCRASSSVNYMYWYQQKPGQAPRLLIYYTSNLAPGIPARFSGSGSGTEFTLTISSLQSEDFAVYYCQQFSSSPWTFGQGTKVEIK 0.0435

Please give the measured koff for this binder: affinity matured h34D10 Fab VH121/VL0 (Fab, V domains shown, Yeast-purified Fab) VH: EVQLVESGGGLVKPGGSLRLSCAASGFTFSAYAMSWVRQAPGEGLVWVASISSGGTTYYPDSVKRQFTISRDNAKNTLYLQMNSLRAEDTAVYYCTRGGDYGYALDYWGQGTLVTVSS VL: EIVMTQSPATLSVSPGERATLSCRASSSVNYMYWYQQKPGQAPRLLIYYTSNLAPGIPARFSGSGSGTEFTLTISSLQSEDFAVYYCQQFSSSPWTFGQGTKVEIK 0.0494

Please give the measured koff for this binder: affinity matured h34D10 Fab VH113/VL0 (Fab, V domains shown, Yeast-purified Fab) VH: EVQLVESGGGLVKPGGSLRLSCAASGFTFSAYAMSWVRQAPGKGLVWVAGISSGGTTYYPDSVKRQFTISRDNAKNTLYLQMNSLRAEDTAVYYCTRGGDYGYALDYWGQGTLVTVSS VL: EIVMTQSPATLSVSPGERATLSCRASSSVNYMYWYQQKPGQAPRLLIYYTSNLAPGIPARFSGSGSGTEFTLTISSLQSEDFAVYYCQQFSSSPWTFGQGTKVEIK 0.0372

Please give the measured koff for this binder: affinity matured h34D10 Fab VH102/VL0 (Fab, V domains shown, Yeast-purified Fab) VH: EVQLVESGGGLVKPGGSLRLSCAASGFTFSAYAMSWVRQAPGKGLVWVASISSGGTTYYPDSVKRQFTISRDNAKNTLYLQMNSLRAEDTAVYYCTRGGDYSYALDYWGQGTLVTVSF VL: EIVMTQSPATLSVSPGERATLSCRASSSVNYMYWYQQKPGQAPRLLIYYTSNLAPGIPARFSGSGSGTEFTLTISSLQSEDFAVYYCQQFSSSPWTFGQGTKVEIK 0.00977

Please give the measured koff for this binder: affinity matured h34D10 Fab VH115/VL0 (Fab, V domains shown, Yeast-purified Fab) VH: GVQLVESGGGLVKPGGSLRLSCAASGFTFSAYAMSWVRQAPGKGLVWVASISSGGTTYYPDSVKRQFTISRDDAKNTLYLQMNSLRAEDTAVYYCTRGGDYGYALDYWGQGTLVTVSS VL: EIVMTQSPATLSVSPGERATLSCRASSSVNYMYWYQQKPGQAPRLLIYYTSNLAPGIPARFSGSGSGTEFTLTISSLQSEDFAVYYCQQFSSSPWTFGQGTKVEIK 0.0429
